pKi: −log10 of the molar value.
pKi values for Carbonic anhydrase 9 (Homo sapiens), compiled from several publications.
Label fulfilled when pKi >= 7; otherwise not fulfilled.

Hi, just wondering whether O=S1(=O)CC(O)c2ccc(OCc3ccccc3)cc2O1 (racemic) shows pKi of 7 or higher.
not fulfilled

Hi, just wondering whether CCB(CC)OC(=O)[C@@H](N)CCCCNC(=S)Nc1cccc(S(N)(=O)=O)c1 shows pKi of 7 or higher.
fulfilled

Hi, just wondering whether NS(=O)(=O)c1ccc2c(c1)C(=O)C(=O)N2Cc1ccc(SC(F)(F)F)cc1 shows pKi of 7 or higher.
not fulfilled

Hi, just wondering whether Cc1nn(C)c2nnc(Nc3ccc(S(=O)(=O)N4CCCC4)cc3)nc12 shows pKi of 7 or higher.
not fulfilled

Hi, just wondering whether O=C(S)N1CCN(c2ccc(F)cc2)CC1 shows pKi of 7 or higher.
fulfilled

Hi, just wondering whether CCCCC(NOCc1ccc(Cl)cc1)C(=O)NO (stereo not drawn) shows pKi of 7 or higher.
not fulfilled

Hi, just wondering whether NCCCCOc1ccc(S(N)(=O)=O)cc1 shows pKi of 7 or higher.
fulfilled

Hi, just wondering whether NS(=O)(=O)c1ccc(NC(=O)CCN2CCN(Cc3ccccc3)CC2)cc1 shows pKi of 7 or higher.
not fulfilled

Hi, just wondering whether C/C(=N\NC(N)=O)c1nnn(-c2ccc(S(N)(=O)=O)cc2)c1C shows pKi of 7 or higher.
not fulfilled

Hi, just wondering whether NS(=O)(=O)c1ccc(CC/N=C/c2ccc(S(=O)(=O)O)o2)cc1 shows pKi of 7 or higher.
not fulfilled

Hi, just wondering whether NS(=O)(=O)c1ccc(C(=O)N2CCN(C(=O)c3ccc([N+](=O)[O-])s3)CC2)cc1 shows pKi of 7 or higher.
not fulfilled

Hi, just wondering whether CS(=O)(=O)Oc1ccc2c(c1)OS(=O)(=O)CC2 shows pKi of 7 or higher.
not fulfilled

Hi, just wondering whether Cc1c(C(=O)/C=C/Nc2cc(Cl)c(S(N)(=O)=O)cc2S(N)(=O)=O)sc2nc3ccccc3n12 shows pKi of 7 or higher.
fulfilled

Hi, just wondering whether CCOC(=O)[C@@H]1C[C@@H]1Cc1ccc(OC)c(OC)c1 shows pKi of 7 or higher.
not fulfilled

Hi, just wondering whether NS(=O)(=O)c1ccc(-c2ccc(C(=O)O)cc2)cc1 shows pKi of 7 or higher.
fulfilled

Hi, just wondering whether O=C(Cc1ccccc1Br)Oc1ccc2c(c1)OS(=O)(=O)CC2 shows pKi of 7 or higher.
not fulfilled

Hi, just wondering whether CCCCCc1ccc(-c2cn(-c3ccc(S(N)(=O)=O)cc3)nn2)cc1 shows pKi of 7 or higher.
fulfilled

Hi, just wondering whether O=C1Nc2c(ccc3ccccc23)S(=O)(=O)N1 shows pKi of 7 or higher.
fulfilled

Hi, just wondering whether CC(=O)Oc1ccc2c(c1)OS(=O)(=O)CC2 shows pKi of 7 or higher.
not fulfilled

Hi, just wondering whether CCOP(=O)(OCC)C(Nc1ccc(S(N)(=O)=O)cc1)c1ccccc1F (stereo not drawn) shows pKi of 7 or higher.
fulfilled

* * *

pKi values for Carbonic anhydrase 9 (Homo sapiens, UniProt Q16790), compiled from several publications.
# reply with the number alone; pKi is -log10 of concentration in mol/L

Print Carbonic anhydrase 9 (Homo sapiens, UniProt Q16790) pKi for NS(=O)(=O)c1cccc(/N=N/c2ccc(NCS(=O)(=O)O)cc2)c1 .
7.24

Print Carbonic anhydrase 9 (Homo sapiens, UniProt Q16790) pKi for O=C(NN=C1C(=O)Nc2ccc([N+](=O)[O-])cc21)Nc1nnc(S)s1 .
5.90

Print Carbonic anhydrase 9 (Homo sapiens, UniProt Q16790) pKi for NS(=O)(=O)c1ccc(-c2cn(S(=O)(=O)c3ccccc3)c3ccccc23)cc1 .
9.62

Print Carbonic anhydrase 9 (Homo sapiens, UniProt Q16790) pKi for CN(C)CC/N=C(\S)Nc1ccc(S(=O)(=O)Nc2ccc(S(N)(=O)=O)cc2)cc1 .
8.17

Print Carbonic anhydrase 9 (Homo sapiens, UniProt Q16790) pKi for CNCC(O)COc1ccc(S(=O)(=O)NC(C)C(C)C)cc1 (centres undefined) .
6.97

Print Carbonic anhydrase 9 (Homo sapiens, UniProt Q16790) pKi for O=C(Oc1ccc2ccc(=O)oc2c1)c1ccccc1 .
7.29

Print Carbonic anhydrase 9 (Homo sapiens, UniProt Q16790) pKi for NS(=O)(=O)c1nnc(NC(=O)CCC(=O)NCCOCCOCCNC(=O)CCC(=O)Nc2nnc(S(N)(=O)=O)s2)s1 .
8.02

Print Carbonic anhydrase 9 (Homo sapiens, UniProt Q16790) pKi for CC(=O)C1=NN(c2ccccc2)/C(=C(\C#N)C(=O)Nc2ccc(S(N)(=O)=O)cc2)S1 .
9.48

* * *

pKi: −log10 of the molar value.
pKi values for Carbonic anhydrase 9 (Homo sapiens, UniProt Q16790), compiled from several publications.
Label T when pKi >= 7; otherwise F.

Hi, just wondering whether CCCN(CCC)S(=O)(=O)c1ccc(C(=O)N[C@@H](CO)C(=O)O)cc1 shows pKi of 7 or higher.
T

Hi, just wondering whether COc1ccc(CCNC(=O)c2ccc(S(N)(=O)=O)cc2)cc1OC shows pKi of 7 or higher.
T

Hi, just wondering whether NS(=O)(=O)c1ccc(CCNCc2ccc(OCc3ccccc3)cc2)cc1 shows pKi of 7 or higher.
T

Hi, just wondering whether O=C(O)c1cc2ccccc2oc1=O shows pKi of 7 or higher.
F

Hi, just wondering whether NS(=O)(=O)c1ccc(CCNCc2cc(Cl)ccc2O)cc1 shows pKi of 7 or higher.
T

Hi, just wondering whether CCOC(=O)c1nn(-c2ccc(S(N)(=O)=O)cc2)c2nc3nc(-c4ccc(Cl)cc4)cc(-c4ccc(OC)cc4)c3c(=O)n12 shows pKi of 7 or higher.
F

Hi, just wondering whether COc1ccc2ccc(=O)oc2c1C(C=O)=C(C)C shows pKi of 7 or higher.
F

Hi, just wondering whether NS(=O)(=O)c1ccc(/N=C/c2ccccc2)cc1 shows pKi of 7 or higher.
F

Hi, just wondering whether NC(=O)[C@H](CO)NC(=O)/C=N/OCc1ccc(S(N)(=O)=O)cc1 shows pKi of 7 or higher.
F

Hi, just wondering whether NS(=O)(=O)c1cccc(-n2cc(Cn3ccc(=O)[nH]c3=O)nn2)c1 shows pKi of 7 or higher.
F

Hi, just wondering whether CCCC(=O)OC[C@H]1O[C@@H](n2cc(-c3cccc(S(N)(=O)=O)c3)nn2)[C@H](OC(=O)CCC)[C@@H](OC(=O)CCC)[C@@H]1OC(=O)CCC shows pKi of 7 or higher.
F

Hi, just wondering whether O=C(N/N=C/c1ccccc1[N+](=O)[O-])Nc1n[nH]c(=S)s1 shows pKi of 7 or higher.
F

Hi, just wondering whether COC(=O)C(Cc1ccccc1)NC(=O)Nc1cccc(S(N)(=O)=O)c1 (configuration not stated) shows pKi of 7 or higher.
F

Hi, just wondering whether O=C(O)c1cc(-c2cn(Cc3ccccc3)c3ccccc23)[nH]n1 shows pKi of 7 or higher.
F

Hi, just wondering whether NS(=O)(=O)c1ccc(C(=O)N2CCN(C(=O)c3ccc([N+](=O)[O-])o3)CC2)cc1 shows pKi of 7 or higher.
F

Hi, just wondering whether NS(=O)(=O)c1ccc(C(=O)N2CCN(Cc3ccccc3)C[C@@H]2CCO)cc1 shows pKi of 7 or higher.
T

Hi, just wondering whether O=Cc1cccc(OCc2cn(CCCOc3ccc4ccc(=O)oc4c3)nn2)c1 shows pKi of 7 or higher.
F

Hi, just wondering whether NS(=O)(=O)c1ccc(CNC(=O)CCCNC(=O)Nc2ccccc2)cc1 shows pKi of 7 or higher.
T

Hi, just wondering whether COc1cccc(/C=N/CC/N=C/c2cccc(OC)c2O)c1O shows pKi of 7 or higher.
F

Hi, just wondering whether COc1ccc(C(=O)CSc2nc(Nc3ccc(S(N)(=O)=O)cc3)c(C#N)c(-c3ccc(C)cc3)n2)cc1 shows pKi of 7 or higher.
F

Hi, just wondering whether O=Cc1cc(Br)ccc1OCc1cn(CCCOc2ccc3ccc(=O)oc3c2)nn1 shows pKi of 7 or higher.
F

Hi, just wondering whether NS(=O)(=O)c1ccc(-n2nnc(C(=O)c3ccc(F)cc3)c2C(F)(F)F)cc1 shows pKi of 7 or higher.
T

Hi, just wondering whether NS(=O)(=O)c1ccc(NS(=O)(=O)c2ccc(NC(=O)c3c(F)c(F)cc(F)c3F)cc2)cc1 shows pKi of 7 or higher.
T

Hi, just wondering whether NS(=O)(=O)c1ccc(-n2nc(CO)cc2-c2ccc(-c3ccccc3)cc2)cc1 shows pKi of 7 or higher.
T

Hi, just wondering whether NS(=O)(=O)c1nnc(NC(=O)C23CC4CC(CC(C4)C2)C3)s1 shows pKi of 7 or higher.
T

Hi, just wondering whether NS(=O)(=O)c1ccc(-c2ccc(C(=O)c3ccccc3C(=O)O)cc2)cc1 shows pKi of 7 or higher.
F

Hi, just wondering whether NS(=O)(=O)c1ccccc1N1C(=O)c2cccc([N+](=O)[O-])c2C1=O shows pKi of 7 or higher.
F

Hi, just wondering whether O=C(N/N=C/c1ccccc1Cl)Nc1n[nH]c(=S)s1 shows pKi of 7 or higher.
F

Hi, just wondering whether NS(=O)(=O)c1cc(NC(=O)Nc2ccc(Cl)cc2)c(Cl)cc1Cl shows pKi of 7 or higher.
T

Hi, just wondering whether CC(C)(C)n1c(=O)cc(-c2cc3ccccc3n2S(=O)(=O)c2ccccc2)[s+]1[O-] (configuration not stated) shows pKi of 7 or higher.
T

Hi, just wondering whether NS(=O)(=O)c1ccc(-c2n[nH]c(=S)n2-c2ccc(S(N)(=O)=O)cc2)cc1 shows pKi of 7 or higher.
T

Hi, just wondering whether CC(=O)N1N=C(c2ccc(Cl)cc2Cl)CC1c1ccc(OS(N)(=O)=O)cc1 (configuration not stated) shows pKi of 7 or higher.
T
